Hey, just so you know, these numbers are from PubChem BioAssay (NCI).

# Tested on: SR leukemia
# run_description: NCI tumour cell line growth inhibition, 48 h
reported_metric: TGI

[[record]]
compound = "O=C1CC(O)c2cscc21 (stereo not drawn)"
recorded_result = "> 100 µM"

[[record]]
compound = "CC1=NN(c2nc(N)nc(C(C)Cl)n2)C(C)(C)C1 (stereo not drawn)"
recorded_result = "> 100 µM"

[[record]]
compound = "CC(SC(=S)N1CCOCC1)C(=O)Nc1nnc(-c2ccc(Cl)cc2)o1 (stereo not drawn)"
recorded_result = "40.6 µM"

[[record]]
compound = "O=C1N[C@@H]2CCCC[C@@H]2C12CCCCC2"
recorded_result = "> 100 µM"

[[record]]
compound = "O=C(c1ccccc1)[C@H]1Nc2ccc(Cl)cc2[C@H]2CCC[C@@H]12"
recorded_result = "> 100 µM"

[[record]]
compound = "CCCCCCCCCCCCCCCCCCNc1ccn(C2OC(COP(=O)(O)OCC3OC(n4ccc(N)nc4=O)C(O)C3O)C(O)C2O)c(=O)n1 (stereo not drawn)"
recorded_result = "> 100 µM"

[[record]]
compound = "Cc1cc(C)c(-c2no/c(=N\\S(=O)(=O)c3ccc(Cl)cc3)o2)c(C)c1"
recorded_result = "55 µM"

[[record]]
compound = "C1CCC(N=C2N(C3CCCCC3)C(=NC3CCCCC3)N2C2CCCCC2)CC1"
recorded_result = "> 100 µM"

[[record]]
compound = "O=C1c2ccccc2N2OC3(N4CCOCC4)CCCC3C12c1ccccc1 (stereo not drawn)"
recorded_result = "> 100 µM"

[[record]]
compound = "CCN(CC)c1ccc2nc3ccc(=[N+](CC)CC)cc-3oc2c1"
recorded_result = "> 44.3 µM"

[[record]]
compound = "CCOC(=O)/C(=C/c1ccccn1)C(=O)c1ccccc1"
recorded_result = "14.2 µM"

[[record]]
compound = "Cc1cnc(C(=O)NNc2nc3sc4c(c3c(=O)[nH]2)C(C)CCC4)cn1 (stereo not drawn)"
recorded_result = "29.2 µM"

[[record]]
compound = "C=CCC(CCC(C)=O)(C(=O)OCC)C(=O)OCC"
recorded_result = "> 100 µM"


====

# Test system: KM12 colon
# run_description: NCI tumour cell line growth inhibition, 48 h
reported_metric: GI50

[[record]]
test_smiles = "O=C(COc1ccc(/C=C2\\Oc3ccccc3C2=O)cc1)Nc1nc2ccccc2s1"
reported_metric = "GI50"
recorded_result = "2090 nM"

[[record]]
test_smiles = "CC(=O)[CH-]C(=O)c1ccccc1.[C-]#[O+].[C-]#[O+].[Ir]"
reported_metric = "GI50"
recorded_result = "> 10000 nM"

[[record]]
test_smiles = "COCCN(CCOC)c1nc(-c2ccccc2)nc2ccccc12"
reported_metric = "GI50"
recorded_result = "18600 nM"

[[record]]
test_smiles = "N#CC(C#N)=C/C=C(\\Sc1ccc(Cl)cc1)c1ccc(F)cc1"
reported_metric = "GI50"
recorded_result = "870 nM"


====

# Tested on: SNB-19 CNS
# run_description: NCI tumour cell line growth inhibition, 48 h
Here the recorded TGI is given for each entry.
reported_metric: TGI

[[record]]
compound = "Cc1cc(C)c(-c2no/c(=N\\S(=O)(=O)c3ccc(Cl)cc3)o2)c(C)c1"
target = "SNB-19 CNS"
recorded_result = "> 100 µM"

[[record]]
compound = "C=C1CC[C@@H](CCC2CCC3(OC2)O[C@]2(O)CC[C@@]3(C)OC2(C)C)C(C)(C)[C@H]1C/C=C1\\CCOC1=O (stereo partly drawn)"
target = "SNB-19 CNS"
recorded_result = "> 100 µM"

[[record]]
compound = "COC(=O)c1cc(S(=O)(=O)NC2=NCC(C)NN2)c(S)cc1Cl (stereo not drawn)"
target = "SNB-19 CNS"
recorded_result = "> 100 µM"

[[record]]
compound = "Cc1nc2c(sc3nc4c(cc32)CCC4)c(=O)o1"
target = "SNB-19 CNS"
recorded_result = "> 96.6 µM"

[[record]]
compound = "S=C1Cc2c(-c3ccccc3)cc(-c3cccc(Cl)c3)nc2-c2ccccc2N1"
target = "SNB-19 CNS"
recorded_result = "7.97 µM"

[[record]]
compound = "O=C(CCCC(=O)Nc1ccc(Cl)cc1Cl)CC(=O)c1ccc2ccccc2c1"
target = "SNB-19 CNS"
recorded_result = "> 100 µM"

[[record]]
compound = "CCN(/C=C1/C(=O)C(c2ccccc2)N(c2ccccc2)C1=O)CC (stereo not drawn)"
target = "SNB-19 CNS"
recorded_result = "> 10 µM"

[[record]]
compound = "COc1ccc2nc3cc(Cl)ccc3c(NC(C)CCCN(CCCl)CCCl)c2c1 (stereo not drawn)"
target = "SNB-19 CNS"
recorded_result = "7.15 µM"

